test: Human HepG2 cell viability assay in 384 well format; format: toxicity, cell-based; design: dose 125 nL, time 70.5 hour; concentration not given beside the values; conditions: HepG2 cells, read-out: Inhibition
Kindly supply the reported cytotoxicity at 70.5 h values for the records listed here.
Report only the number, with the unit % understood.

Record request: cytotoxicity at 70.5 h value, item O=C(c1cnc2ccc(F)cc2c1NCc1ccco1)N1CCCC1
28.7

Entry under review: CN(C)S(=O)(=O)N1CCN(c2ccnc(N3CCCCC3)n2)CC1 . Reported cytotoxicity at 70.5 h?
-8.18

Recorded cytotoxicity at 70.5 h for CCN(CC)S(=O)(=O)NC1CCN(c2ccc(OC)cc2)CC1 , please?
-3.82

// lookup cytotoxicity at 70.5 h for Cn1cccc1C1CCCN1C(=O)NCCCn1cccn1 (stereo not given)
-7.92

Quick one: cytotoxicity at 70.5 h for O=S(=O)(Cc1ccccc1F)NCCN1CCOCC1 ?
-2.45

Using the record for Cc1cc(-c2cnc(N3CCNC(=O)C3)nc2-c2cccnc2C)on1 , report its cytotoxicity at 70.5 h.
-15.9

cytotoxicity at 70.5 h for CCN(Cc1noc(CC(C)C)n1)Cc1cc2ccc(F)cc2[nH]c1=O ?
0.157

Endpoint output: cytotoxicity at 70.5 h of O=C(CSc1ccc2c(c1)OCCO2)NS(=O)(=O)c1cccs1 . Value?
-6.92

Reported cytotoxicity at 70.5 h for CCCNC(=O)C(C)Oc1ccc(F)cc1 (stereo not given) : what is it?
-12.9

Record request: cytotoxicity at 70.5 h value, item Cc1ncnc2c1CCN(C(=O)c1ccsc1)CC2
7.97

Recorded cytotoxicity at 70.5 h for COc1ccccc1N1CCN(C(=O)Cn2nc(C)c(Cl)c2C)CC1 , please?
11.3

Report cytotoxicity at 70.5 h for CCOc1ccc(C#N)cc1NC(=O)N1CCCC(NC(=O)CC)C1 (stereo not given) please.
-7.12

What value of cytotoxicity at 70.5 h has been recorded for this entry: COc1ccccc1COCC(O)CN1CC(n2cccn2)C1 (stereo not given)
-10.8

Looking for the measured cytotoxicity at 70.5 h of CCN(CC)C(=O)Cn1cc(C(=O)NCCc2scnc2C)nn1 , can you help?
-1.44

I'd like to know its cytotoxicity at 70.5 h. The molecule in question is O=c1oc(-c2ccc(F)cc2)nn1CCc1ccccn1
2.48

Quick check: cytotoxicity at 70.5 h of CCc1nnc2n1CCN(C(=O)C(OC)c1ccccc1)C2 (stereo not given) ?
-8.62

What does the data say about its cytotoxicity at 70.5 h? Entry: CCN(CC)C1CCN(c2ncnc3c2CCN(C(=O)C2CC2)C3)C1 (stereo not given)
-2.79

Requested field: cytotoxicity at 70.5 h. Item: CCCn1ncc(C(=O)N2CCN(C(=O)c3ccc[nH]3)CC2)c1C
-7.32

For the molecule COCCO[C@H]1COCCN(Cc2ccc(OC)cc2)C1 , what cytotoxicity at 70.5 h is on record?
8.32

Return reported cytotoxicity at 70.5 h; argument: COc1cccc(-n2cc(-c3ccnc(N[C@@H](CO)C(C)C)n3)cn2)c1
13.3

Which cytotoxicity at 70.5 h value belongs to Cc1cc(NCC(=O)NCC(F)(F)F)nc(-c2ccncc2)n1 ?
-8.33

Recorded cytotoxicity at 70.5 h for O=C(O)c1ccccc1-c1ccc(CN2CCC(CO)C2)cn1 (stereo not given) , please?
15.8

Recorded cytotoxicity at 70.5 h of CCn1c(N)nc2cc(C(=O)N3CCCOCC3)cnc21 , please.
-6.56

Name the recorded cytotoxicity at 70.5 h for O=C(NCCC(=O)N1CCCC1)c1nn(-c2ccccc2F)cc1O .
35.9

Return reported cytotoxicity at 70.5 h; argument: Cc1ccc(CC(=O)N(C)CC2(O)CCCN(c3ccccn3)C2)s1 (stereo not given)
-5.95

Which cytotoxicity at 70.5 h is listed for O=C(NC1CCN(C2CC2)CC1)N1CCN(c2cnccn2)CC1 ?
3.56

Fill in the blank: the reported cytotoxicity at 70.5 h of CCS(=O)(=O)NCCN1CCc2ccc(F)cc2C1C (stereo not given) is ____.
-4.91

What cytotoxicity at 70.5 h value was documented for this molecule, COCc1cncc2c1CCN(Cc1cccnc1)C2 ?
-3.24

GET /values?readout=cytotoxicity at 70.5 h&item= COc1cccc(OCC(=O)NCc2ccc3[nH]c(=O)[nH]c3c2)c1
-13.7

Return reported cytotoxicity at 70.5 h; argument: COCCn1ccnc1C1CCCN(c2ncnc3c(C)csc23)C1 (stereo not given)
23.8

Recorded cytotoxicity at 70.5 h for COC1CCN(C(=O)c2csc(-c3ccccc3F)n2)CC1 , please?
-4.85

Recorded cytotoxicity at 70.5 h for CCOc1ccnc(N2CCN(CCOC)CC2)n1 , please?
-5.63

Value lookup for cytotoxicity at 70.5 h; key = COC[C@@]12CCC[C@@H]1CN(C(=O)N1CCCC1)C2
-6.53

What cytotoxicity at 70.5 h value was documented for this molecule, c1cncc(COCC2CN(Cc3cccnc3)Cc3ccnn3C2)c1 (stereo not given) ?
-9.95

What does the data say about its cytotoxicity at 70.5 h? Entry: Cc1nnc(CCNC(=O)[C@H]2CNC[C@@H](C(=O)N3CCCC3)C2)s1
-6.7
